Target: T1, human GITR (amino acids M1-V241, NCBI Accession #NP_004186.1) expressed on cells (human, UniProt Q9Y5U5 26-241)
T1 sequence: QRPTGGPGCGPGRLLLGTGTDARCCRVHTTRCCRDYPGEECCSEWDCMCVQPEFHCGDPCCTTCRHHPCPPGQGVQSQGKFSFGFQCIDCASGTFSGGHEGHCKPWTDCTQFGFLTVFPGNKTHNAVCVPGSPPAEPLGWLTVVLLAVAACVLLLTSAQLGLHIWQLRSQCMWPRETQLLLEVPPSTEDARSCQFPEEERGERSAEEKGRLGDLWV
Assay: cell-based or functional assay
Observation type: fold activation, T-cell proliferation, plate-bound Ab 10.6 nM, donor 3 (fold)

{"Binder": "H4H14521P (antibody, human IgG4, V domains shown, human IgG4 (H4H)) VH: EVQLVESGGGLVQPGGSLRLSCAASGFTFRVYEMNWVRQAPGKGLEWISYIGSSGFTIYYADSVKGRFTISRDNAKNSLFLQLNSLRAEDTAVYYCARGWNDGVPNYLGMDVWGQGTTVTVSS VL: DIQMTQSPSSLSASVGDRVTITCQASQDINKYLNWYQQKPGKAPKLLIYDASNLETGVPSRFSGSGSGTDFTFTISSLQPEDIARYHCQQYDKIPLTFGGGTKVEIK", "Measured value": 4}
{"Binder": "H4H14470P (antibody, human IgG4, V domains shown, human IgG4 (H4H)) VH: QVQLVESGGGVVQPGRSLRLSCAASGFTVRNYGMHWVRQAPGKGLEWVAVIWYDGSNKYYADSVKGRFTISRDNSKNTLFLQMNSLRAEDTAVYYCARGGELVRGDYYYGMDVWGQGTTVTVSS VL: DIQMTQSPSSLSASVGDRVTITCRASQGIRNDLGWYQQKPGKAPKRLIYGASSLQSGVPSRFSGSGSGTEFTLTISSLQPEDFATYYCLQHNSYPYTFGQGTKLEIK", "Measured value": 3}
{"Binder": "H4H14525P (antibody, human IgG4, V domains shown, human IgG4 (H4H)) VH: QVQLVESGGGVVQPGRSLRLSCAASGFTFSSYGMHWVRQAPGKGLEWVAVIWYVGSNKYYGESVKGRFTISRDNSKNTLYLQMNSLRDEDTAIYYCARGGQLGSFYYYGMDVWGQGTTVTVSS VL: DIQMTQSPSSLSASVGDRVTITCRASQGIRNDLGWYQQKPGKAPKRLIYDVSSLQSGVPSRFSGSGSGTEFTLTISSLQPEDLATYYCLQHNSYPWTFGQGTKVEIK", "Measured value": 1}
{"Binder": "H4H14508P (antibody, human IgG4, V domains shown, human IgG4 (H4H)) VH: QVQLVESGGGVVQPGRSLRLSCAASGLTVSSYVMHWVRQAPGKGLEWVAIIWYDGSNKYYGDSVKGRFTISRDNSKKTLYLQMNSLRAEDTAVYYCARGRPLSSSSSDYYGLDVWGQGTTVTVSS VL: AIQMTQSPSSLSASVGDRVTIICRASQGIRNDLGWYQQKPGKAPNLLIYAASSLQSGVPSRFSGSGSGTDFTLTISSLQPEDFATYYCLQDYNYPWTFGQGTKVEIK", "Measured value": 4}
{"Binder": "H4H14528P (antibody, human IgG4, V domains shown, human IgG4 (H4H)) VH: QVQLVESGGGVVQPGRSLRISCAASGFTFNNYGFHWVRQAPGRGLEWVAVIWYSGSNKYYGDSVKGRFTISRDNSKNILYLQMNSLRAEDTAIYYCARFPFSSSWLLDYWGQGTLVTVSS VL: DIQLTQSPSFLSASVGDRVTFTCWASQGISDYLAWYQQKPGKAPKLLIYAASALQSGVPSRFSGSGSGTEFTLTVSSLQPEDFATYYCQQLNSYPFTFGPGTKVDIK", "Measured value": 8}
